Assay: Octanol water partition coefficient (Log P)
Format: physicochemical
Conditions: 1-octanol/water; 1-octanol and water system, average value
property: logP

compound	assay-result
C[C@@H](NCCCc1cccc(C(F)(F)F)c1)c1ccc([18F])c2ccccc12 [[^18F]F-ZW-cinacalcet]	1.95
